system: Escherichia coli TOP10; assay: shrunken log2 fold change of peptide-encoding DNA abundance (4.5 h post-induction vs induction); higher = less antimicrobial activity (less host growth inhibition); conditions: time post-induction: 4.5 h; library: site-saturation at positions 5, 18, 19, 20
Class TRUE: shrunken log2 fold change at least -0.08. Class FALSE: shrunken log2 fold change below -0.08.

[[record]]
sequence_string = "RRIRPRPPRLPRPRPRPEFYPRP"
category = "FALSE"

[[record]]
sequence_string = "RRIRTRPPRLPRPRPRPDPGPRP"
category = "TRUE"

[[record]]
sequence_string = "RRIRDRPPRLPRPRPRPFTYPRP"
category = "TRUE"

[[record]]
sequence_string = "RRIRYRPPRLPRPRPRPGEGPRP"
category = "TRUE"

[[record]]
sequence_string = "RRIRNRPPRLPRPRPRPNNWPRP"
category = "TRUE"


====

system: Escherichia coli TOP10; test: shrunken log2 fold change of peptide-encoding DNA abundance (4.5 h post-induction vs induction); higher = less antimicrobial activity (less host growth inhibition); details: time post-induction: 4.5 h; library: site-saturation at positions 5, 18, 19, 20
Here, each record is paired with measured shrunken log2 fold change data.
Quantity Measured: shrunken log2 fold change

[[record]]
sequence_string = "RRIRHRPPRLPRPRPRPIRDPRP"
result_number = 0.0386

[[record]]
sequence_string = "RRIRGRPPRLPRPRPRPYGMPRP"
result_number = 0.036

[[record]]
sequence_string = "RRIRHRPPRLPRPRPRPEGSPRP"
result_number = -0.0192

[[record]]
sequence_string = "RRIRPRPPRLPRPRPRPGHDPRP"
result_number = 0.235

[[record]]
sequence_string = "RRIRCRPPRLPRPRPRPVICPRP"
result_number = -0.241

[[record]]
sequence_string = "RRIRFRPPRLPRPRPRPTIWPRP"
result_number = -0.000248

[[record]]
sequence_string = "RRIRTRPPRLPRPRPRPDWCPRP"
result_number = -0.0271

[[record]]
sequence_string = "RRIRRRPPRLPRPRPRPKSIPRP"
result_number = -0.0792

[[record]]
sequence_string = "RRIRARPPRLPRPRPRPAGAPRP"
result_number = 1.16

[[record]]
sequence_string = "RRIRVRPPRLPRPRPRPCYHPRP"
result_number = -0.00421

[[record]]
sequence_string = "RRIRDRPPRLPRPRPRPTIAPRP"
result_number = 0.521

[[record]]
sequence_string = "RRIRPRPPRLPRPRPRPEERPRP"
result_number = -0.0232

[[record]]
sequence_string = "RRIRHRPPRLPRPRPRPTPQPRP"
result_number = 0.541

[[record]]
sequence_string = "RRIRVRPPRLPRPRPRPCVRPRP"
result_number = 0.0421

[[record]]
sequence_string = "RRIRYRPPRLPRPRPRPQKLPRP"
result_number = -0.418

[[record]]
sequence_string = "RRIRIRPPRLPRPRPRPESHPRP"
result_number = -0.0755

[[record]]
sequence_string = "RRIRPRPPRLPRPRPRPIDHPRP"
result_number = 0.0529

[[record]]
sequence_string = "RRIRARPPRLPRPRPRPKSLPRP"
result_number = -0.109

[[record]]
sequence_string = "RRIRLRPPRLPRPRPRPYEYPRP"
result_number = -0.132

[[record]]
sequence_string = "RRIRWRPPRLPRPRPRPAANPRP"
result_number = -0.136

[[record]]
sequence_string = "RRIRCRPPRLPRPRPRPRKIPRP"
result_number = 0.245

[[record]]
sequence_string = "RRIRGRPPRLPRPRPRPWTIPRP"
result_number = 0.00608

[[record]]
sequence_string = "RRIRKRPPRLPRPRPRPCMAPRP"
result_number = 0.0448

[[record]]
sequence_string = "RRIRRRPPRLPRPRPRPGHIPRP"
result_number = -0.116

[[record]]
sequence_string = "RRIRGRPPRLPRPRPRPFWNPRP"
result_number = 0.087

[[record]]
sequence_string = "RRIRYRPPRLPRPRPRPALRPRP"
result_number = -0.0531

[[record]]
sequence_string = "RRIRYRPPRLPRPRPRPKWDPRP"
result_number = -0.46

[[record]]
sequence_string = "RRIRSRPPRLPRPRPRPFGTPRP"
result_number = 0.0399

[[record]]
sequence_string = "RRIRNRPPRLPRPRPRPNDNPRP"
result_number = -0.734

[[record]]
sequence_string = "RRIRPRPPRLPRPRPRPLRSPRP"
result_number = 0.167

[[record]]
sequence_string = "RRIRIRPPRLPRPRPRPCYSPRP"
result_number = -0.0549

[[record]]
sequence_string = "RRIRNRPPRLPRPRPRPSNHPRP"
result_number = -0.603

[[record]]
sequence_string = "RRIRPRPPRLPRPRPRPHKQPRP"
result_number = -0.022

[[record]]
sequence_string = "RRIRWRPPRLPRPRPRPPISPRP"
result_number = 0.172

[[record]]
sequence_string = "RRIRLRPPRLPRPRPRPDWRPRP"
result_number = 0.0715

[[record]]
sequence_string = "RRIRNRPPRLPRPRPRPITLPRP"
result_number = -0.229

[[record]]
sequence_string = "RRIRGRPPRLPRPRPRPFMWPRP"
result_number = 0.211

[[record]]
sequence_string = "RRIRSRPPRLPRPRPRPVPNPRP"
result_number = 0.105

[[record]]
sequence_string = "RRIRFRPPRLPRPRPRPHMHPRP"
result_number = -0.655

[[record]]
sequence_string = "RRIRWRPPRLPRPRPRPVLLPRP"
result_number = 0.0146

[[record]]
sequence_string = "RRIRGRPPRLPRPRPRPSGVPRP"
result_number = 0.633

[[record]]
sequence_string = "RRIRSRPPRLPRPRPRPAKYPRP"
result_number = -0.215


====

Here, each record is paired with measured shrunken log2 fold change data.
system: Escherichia coli TOP10; assay: shrunken log2 fold change of peptide-encoding DNA abundance (4.5 h post-induction vs induction); higher = less antimicrobial activity (less host growth inhibition); details: time post-induction: 4.5 h; library: site-saturation at positions 5, 18, 19, 20
Quantity Measured: shrunken log2 fold change

[[record]]
sequence_string = "RRIRNRPPRLPRPRPRPFYGPRP"
target = "Escherichia coli TOP10"
result = -0.107

[[record]]
sequence_string = "RRIRYRPPRLPRPRPRPLEGPRP"
target = "Escherichia coli TOP10"
result = 0.0645

[[record]]
sequence_string = "RRIRNRPPRLPRPRPRPHMEPRP"
target = "Escherichia coli TOP10"
result = -0.145

[[record]]
sequence_string = "RRIRQRPPRLPRPRPRPWYGPRP"
target = "Escherichia coli TOP10"
result = -0.191


====

Here, each record is paired with measured shrunken log2 fold change data.
tested on: Escherichia coli TOP10; assay: shrunken log2 fold change of peptide-encoding DNA abundance (4.5 h post-induction vs induction); higher = less antimicrobial activity (less host growth inhibition); details: time post-induction: 4.5 h; library: site-saturation at positions 5, 18, 19, 20;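 further: peptides expressed intracellularly from a pBAD plasmid library in pooled LB shake-flask culture, induced with 0.3% L-arabinose, DNA abundance read by NGS, three biological replicates, DESeq2 with apeglm shrinkage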
Quantity Measured: shrunken log2 fold change

[[record]]
sequence_string = "RRIRWRPPRLPRPRPRPHKAPRP"
result_number = -0.000946

[[record]]
sequence_string = "RRIRKRPPRLPRPRPRPRCVPRP"
result_number = 0.276

[[record]]
sequence_string = "RRIRWRPPRLPRPRPRPEHDPRP"
result_number = -0.0282

[[record]]
sequence_string = "RRIRSRPPRLPRPRPRPQIFPRP"
result_number = 0.0933

[[record]]
sequence_string = "RRIRRRPPRLPRPRPRPTRYPRP"
result_number = 0.337

[[record]]
sequence_string = "RRIRQRPPRLPRPRPRPENFPRP"
result_number = -0.00776

[[record]]
sequence_string = "RRIRYRPPRLPRPRPRPKYLPRP"
result_number = 0.00379

[[record]]
sequence_string = "RRIRIRPPRLPRPRPRPALTPRP"
result_number = 0.0227

[[record]]
sequence_string = "RRIRQRPPRLPRPRPRPNHRPRP"
result_number = -0.0657

[[record]]
sequence_string = "RRIRQRPPRLPRPRPRPKHAPRP"
result_number = 0.401

[[record]]
sequence_string = "RRIRERPPRLPRPRPRPQTAPRP"
result_number = -0.0922

[[record]]
sequence_string = "RRIRTRPPRLPRPRPRPMGCPRP"
result_number = -0.145

[[record]]
sequence_string = "RRIRKRPPRLPRPRPRPFRWPRP"
result_number = 0.0626

[[record]]
sequence_string = "RRIRYRPPRLPRPRPRPTTQPRP"
result_number = -0.597

[[record]]
sequence_string = "RRIRHRPPRLPRPRPRPVAAPRP"
result_number = 0.202

[[record]]
sequence_string = "RRIRMRPPRLPRPRPRPSHYPRP"
result_number = -0.201

[[record]]
sequence_string = "RRIRQRPPRLPRPRPRPQYKPRP"
result_number = -0.314

[[record]]
sequence_string = "RRIRWRPPRLPRPRPRPTGAPRP"
result_number = 0.337

[[record]]
sequence_string = "RRIRVRPPRLPRPRPRPAFLPRP"
result_number = 0.0548

[[record]]
sequence_string = "RRIRWRPPRLPRPRPRPTATPRP"
result_number = 0.528

[[record]]
sequence_string = "RRIRTRPPRLPRPRPRPCYNPRP"
result_number = -0.645

[[record]]
sequence_string = "RRIRCRPPRLPRPRPRPMNMPRP"
result_number = -0.445

[[record]]
sequence_string = "RRIRSRPPRLPRPRPRPEAYPRP"
result_number = -0.141

[[record]]
sequence_string = "RRIRHRPPRLPRPRPRPWIGPRP"
result_number = -0.0136

[[record]]
sequence_string = "RRIRIRPPRLPRPRPRPNIEPRP"
result_number = -0.0607

[[record]]
sequence_string = "RRIRPRPPRLPRPRPRPDVHPRP"
result_number = -0.0196

[[record]]
sequence_string = "RRIRFRPPRLPRPRPRPDIKPRP"
result_number = -0.602

[[record]]
sequence_string = "RRIRTRPPRLPRPRPRPAYPPRP"
result_number = -0.072

[[record]]
sequence_string = "RRIRGRPPRLPRPRPRPDRLPRP"
result_number = -0.00118

[[record]]
sequence_string = "RRIRVRPPRLPRPRPRPGLPPRP"
result_number = 0.113

[[record]]
sequence_string = "RRIRKRPPRLPRPRPRPDKEPRP"
result_number = -0.2

[[record]]
sequence_string = "RRIRQRPPRLPRPRPRPESYPRP"
result_number = -0.0748

[[record]]
sequence_string = "RRIRWRPPRLPRPRPRPALHPRP"
result_number = 0.277

[[record]]
sequence_string = "RRIRRRPPRLPRPRPRPPIEPRP"
result_number = 0.339

[[record]]
sequence_string = "RRIRQRPPRLPRPRPRPPMAPRP"
result_number = 0.0822

[[record]]
sequence_string = "RRIRIRPPRLPRPRPRPRDSPRP"
result_number = -0.346

[[record]]
sequence_string = "RRIRYRPPRLPRPRPRPKGVPRP"
result_number = 0.028

[[record]]
sequence_string = "RRIRLRPPRLPRPRPRPSYKPRP"
result_number = -0.456

[[record]]
sequence_string = "RRIRDRPPRLPRPRPRPNAGPRP"
result_number = 0.149

[[record]]
sequence_string = "RRIRPRPPRLPRPRPRPKAGPRP"
result_number = 0.285

[[record]]
sequence_string = "RRIRKRPPRLPRPRPRPREFPRP"
result_number = 0.607

[[record]]
sequence_string = "RRIRARPPRLPRPRPRPGWPPRP"
result_number = 0.789

[[record]]
sequence_string = "RRIRDRPPRLPRPRPRPHPFPRP"
result_number = 0.0528

[[record]]
sequence_string = "RRIRFRPPRLPRPRPRPNIVPRP"
result_number = -0.199

[[record]]
sequence_string = "RRIRIRPPRLPRPRPRPYNCPRP"
result_number = -0.411

[[record]]
sequence_string = "RRIRTRPPRLPRPRPRPQLGPRP"
result_number = -0.0516

[[record]]
sequence_string = "RRIRARPPRLPRPRPRPDWEPRP"
result_number = 0.334

[[record]]
sequence_string = "RRIRMRPPRLPRPRPRPRLWPRP"
result_number = 0.103

[[record]]
sequence_string = "RRIRPRPPRLPRPRPRPCNEPRP"
result_number = -0.16

